assay type: physicochemical; settings: high temperature (60° C.) test
Measured attribute: crystal structure

OCC1OC(Oc2cc(O)cc(C=Cc3ccc(O)cc3)c2)C(O)C(O)C1O.[NH2][Pt]1([NH2])[O]C(=O)C2(CCC2)C(=O)[O]1 (stereo not drawn) ... unchanged
CCN(CC)CCCC(C)Nc1ccnc2cc(Cl)ccc12.O=C1[O][Pt]2([NH]C3CCCCC3[NH]2)[O]C1=O (stereo not drawn) ... unchanged
CCN(CC)CCCC(C)Nc1ccnc2cc(Cl)ccc12.[NH2][Pt]1([NH2])[O]C(=O)C2(CCC2)C(=O)[O]1 (stereo not drawn) ... unchanged

====

assay type: physicochemical; settings: high temperature (60° C.) test
Measured attribute: crystal structure

N.N.O=C([O-])C1(C(=O)[O-])CCC1.[Pt+2] [CBT, carboplatin, reference compound] ... unchanged
O=C1[O][Pt]2([NH]C3CCCCC3[NH]2)[O]C1=O.OCC1OC(Oc2cc(O)cc(C=Cc3ccc(O)cc3)c2)C(O)C(O)C1O (stereo not drawn) ... unchanged
O=C1[O][Pt]2([NH][C@@H]3CCCC[C@H]3[NH]2)[O]C1=O [OXA, oxaliplatin, reference compound] ... unchanged

====

Each item that follows carries a reported Content of OXA/%.
assay type: physicochemical; settings: light, Day 15
Respond with a number, then the unit of measure.

O=C(O)C1(C(=O)O)CCC1.O=C1[O][Pt]2([NH]C3CCCCC3[NH]2)[O]C1=O (stereo not shown) ... 99.30%
O=C1[O][Pt]2([NH]C3CCCCC3[NH]2)[O]C1=O.OCC1OC(Oc2cc(O)cc(C=Cc3ccc(O)cc3)c2)C(O)C(O)C1O (stereo not shown) ... 99.91%
O=C1[O][Pt]2([NH][C@@H]3CCCC[C@H]3[NH]2)[O]C1=O [OXA, oxaliplatin, reference compound] ... 98.01%

Now consider a different compound.
Item CCN(CC)CCCC(C)Nc1ccnc2cc(Cl)ccc12.O=C1[O][Pt]2([NH]C3CCCCC3[NH]2)[O]C1=O (stereo not shown) has what recorded Content of OXA/%?
99.64%

====

type: physicochemical; conditions: light, Day 1
Measured attribute: Content of OXA/%
Report as: number unit

O=C(O)C1(C(=O)O)CCC1.O=C1[O][Pt]2([NH]C3CCCCC3[NH]2)[O]C1=O (stereo not shown) ... 100%

So what's the measured Content of OXA/% for this one? CCN(CC)CCCC(C)Nc1ccnc2cc(Cl)ccc12.O=C1[O][Pt]2([NH]C3CCCCC3[NH]2)[O]C1=O (stereo not shown)
100%

For the molecule shown here, O=C1[O][Pt]2([NH]C3CCCCC3[NH]2)[O]C1=O.OCC1OC(Oc2cc(O)cc(C=Cc3ccc(O)cc3)c2)C(O)C(O)C1O (stereo not shown) , give the reported Content of OXA/%.
100%

Need Content of OXA/%, item O=C1[O][Pt]2([NH][C@@H]3CCCC[C@H]3[NH]2)[O]C1=O [OXA, oxaliplatin, reference compound]
98.87%

====

assay type: physicochemical; details: light, Day 3
Measured attribute: Content of OXA/%

As a guide, the following entries are already answered.
O=C1[O][Pt]2([NH]C3CCCCC3[NH]2)[O]C1=O.OCC1OC(Oc2cc(O)cc(C=Cc3ccc(O)cc3)c2)C(O)C(O)C1O (stereo not shown) [OXA-PDT, oxaliplatin-polydatin cocrystal] ... 99.97%
O=C(O)C1(C(=O)O)CCC1.O=C1[O][Pt]2([NH]C3CCCCC3[NH]2)[O]C1=O (stereo not shown) [OXA-CBDA] ... 100%
CCN(CC)CCCC(C)Nc1ccnc2cc(Cl)ccc12.O=C1[O][Pt]2([NH]C3CCCCC3[NH]2)[O]C1=O (stereo not shown) [OXA-U72, oxaliplatin-chloroquine cocrystal] ... 99.21%

Proceeding to the next compound to report its Content of OXA/%.
Please report the recorded Content of OXA/% for O=C1[O][Pt]2([NH][C@@H]3CCCC[C@H]3[NH]2)[O]C1=O [OXA, oxaliplatin, reference compound] .
99.32%

====

format: physicochemical; conditions: 60° C., Day 3
Below, each of the molecules is paired with its reported Content of OXA/% value.
Kindly answer with a numeric value in %, unit omitted.

O=C1[O][Pt]2([NH][C@@H]3CCCC[C@H]3[NH]2)[O]C1=O [OXA, oxaliplatin, reference compound] ... 99.33

Given the entry CCN(CC)CCCC(C)Nc1ccnc2cc(Cl)ccc12.O=C1[O][Pt]2([NH]C3CCCCC3[NH]2)[O]C1=O (stereo not shown) , report its measured Content of OXA/%.
99.38

Name the recorded Content of OXA/% for O=C(O)C1(C(=O)O)CCC1.O=C1[O][Pt]2([NH]C3CCCCC3[NH]2)[O]C1=O (stereo not shown) .
99.98

Need Content of OXA/%, item O=C1[O][Pt]2([NH]C3CCCCC3[NH]2)[O]C1=O.OCC1OC(Oc2cc(O)cc(C=Cc3ccc(O)cc3)c2)C(O)C(O)C1O (stereo not shown)
100

====

Recorded Content of OXA/%, one value per entry.
type: physicochemical; details: light, Day 10
Dear colleague, please return just the value in %, with no unit written.

Worked examples follow.
O=C1[O][Pt]2([NH][C@@H]3CCCC[C@H]3[NH]2)[O]C1=O [OXA, oxaliplatin, reference compound] ... 99.45
O=C(O)C1(C(=O)O)CCC1.O=C1[O][Pt]2([NH]C3CCCCC3[NH]2)[O]C1=O (stereo not shown) [OXA-CBDA] ... 99.97
CCN(CC)CCCC(C)Nc1ccnc2cc(Cl)ccc12.O=C1[O][Pt]2([NH]C3CCCCC3[NH]2)[O]C1=O (stereo not shown) [OXA-U72, oxaliplatin-chloroquine cocrystal] ... 99.33

Turning now to a further compound:
// Content of OXA/% lookup, key: O=C1[O][Pt]2([NH]C3CCCCC3[NH]2)[O]C1=O.OCC1OC(Oc2cc(O)cc(C=Cc3ccc(O)cc3)c2)C(O)C(O)C1O (stereo not shown) [OXA-PDT, oxaliplatin-polydatin cocrystal]
99.44

====

assay type: physicochemical; settings: 60° C., Day 15
Below, each of the compounds is paired with its reported Content of OXA/% value.
Write the value in % as a bare number.

CCN(CC)CCCC(C)Nc1ccnc2cc(Cl)ccc12.O=C1[O][Pt]2([NH]C3CCCCC3[NH]2)[O]C1=O (stereo not shown) ... 99.46

Any idea what its Content of OXA/% is? The compound is O=C1[O][Pt]2([NH]C3CCCCC3[NH]2)[O]C1=O.OCC1OC(Oc2cc(O)cc(C=Cc3ccc(O)cc3)c2)C(O)C(O)C1O (stereo not shown)
99.87

What value of measured Content of OXA/% is listed for O=C1[O][Pt]2([NH][C@@H]3CCCC[C@H]3[NH]2)[O]C1=O [OXA, oxaliplatin, reference compound] ?
98.21

Bench note: what Content of OXA/% did O=C(O)C1(C(=O)O)CCC1.O=C1[O][Pt]2([NH]C3CCCCC3[NH]2)[O]C1=O (stereo not shown) show?
99.57

====

Quick reference for Content of OXA/% among some compounds
type: physicochemical; conditions: light, Day 0
Kindly answer with a numeric value in %, unit omitted.

Which Content of OXA/% reading was recorded for the compound O=C(O)C1(C(=O)O)CCC1.O=C1[O][Pt]2([NH]C3CCCCC3[NH]2)[O]C1=O (stereo not shown) ?
100

Returns the measured Content of OXA/% for the input compound. Input: O=C1[O][Pt]2([NH][C@@H]3CCCC[C@H]3[NH]2)[O]C1=O [OXA, oxaliplatin, reference compound]
100

Would you mind telling me what Content of OXA/% value was observed for CCN(CC)CCCC(C)Nc1ccnc2cc(Cl)ccc12.O=C1[O][Pt]2([NH]C3CCCCC3[NH]2)[O]C1=O (stereo not shown) ?
100

Return reported Content of OXA/%; argument: O=C1[O][Pt]2([NH]C3CCCCC3[NH]2)[O]C1=O.OCC1OC(Oc2cc(O)cc(C=Cc3ccc(O)cc3)c2)C(O)C(O)C1O (stereo not shown)
100

====

assay type: physicochemical; details: 60° C., Day 10
Measured attribute: Content of OXA/% (%)
Just the number in %, nothing appended.

Return reported Content of OXA/%; argument: O=C1[O][Pt]2([NH]C3CCCCC3[NH]2)[O]C1=O.OCC1OC(Oc2cc(O)cc(C=Cc3ccc(O)cc3)c2)C(O)C(O)C1O (stereo not shown)
99.63

What does the record list as Content of OXA/% for O=C1[O][Pt]2([NH][C@@H]3CCCC[C@H]3[NH]2)[O]C1=O [OXA, oxaliplatin, reference compound] ?
99.09

Fill blank: measured Content of OXA/% of the molecule O=C(O)C1(C(=O)O)CCC1.O=C1[O][Pt]2([NH]C3CCCCC3[NH]2)[O]C1=O (stereo not shown) is ____.
99.45

Reported Content of OXA/% for CCN(CC)CCCC(C)Nc1ccnc2cc(Cl)ccc12.O=C1[O][Pt]2([NH]C3CCCCC3[NH]2)[O]C1=O (stereo not shown) : what is it?
99.33
